// data source = ChEMBL document CHEMBL5325390

Tested on: metallo-β-lactamase VIM-2 (Pseudomonas aeruginosa)
Experiment notes: Inhibition of VIM-2 (unknown origin) expressed in Escherichia coli BL21(DE3) assessed as substrate hydrolysis at 200 uM by UV-Vis spectrophotometric analysis relative to control
Listing of recorded inhibition by entry.

[Q] Lab note: need inhibition with metallo-β-lactamase VIM-2 (Pseudomonas aeruginosa) for entry Oc1ccc(CCn2c(-c3ccccc3)n[nH]c2=S)c(O)c1 , please look it up.
[A] < 50%

[Q] Lab note: need inhibition with metallo-β-lactamase VIM-2 (Pseudomonas aeruginosa) for entry S=c1[nH]nc(-c2ccccc2)n1CCc1ccccc1 , please look it up.
[A] < 50%

[Q] Lab note: need inhibition with metallo-β-lactamase VIM-2 (Pseudomonas aeruginosa) for entry Cc1ccccc1CCn1c(-c2ccccc2)n[nH]c1=S , please look it up.
[A] < 50%

[Q] Lab note: need inhibition with metallo-β-lactamase VIM-2 (Pseudomonas aeruginosa) for entry S=c1[nH]nc(-c2cccc(-c3ccccc3)c2)n1[C@@H]1C[C@H]1c1ccccc1 , please look it up.
[A] < 50%

[Q] Lab note: need inhibition with metallo-β-lactamase VIM-2 (Pseudomonas aeruginosa) for entry S=c1[nH]nc(Cc2ccc3ccccc3c2)n1-c1ccc(OCc2ccccc2)cc1 , please look it up.
[A] < 50%

[Q] Lab note: need inhibition with metallo-β-lactamase VIM-2 (Pseudomonas aeruginosa) for entry O=C1OC(Cn2c(-c3ccccc3-c3ccccc3)n[nH]c2=S)c2ccccc21 (stereo unspecified) , please look it up.
[A] < 50%

---

System: metallo-β-lactamase L1 (Stenotrophomonas maltophilia)
Experiment notes: Inhibition of L1 (unknown origin) expressed in Escherichia coli BL21(DE3) assessed as substrate hydrolysis at 100 uM by UV-Vis spectrophotometric analysis relative to control
Result type: inhibition (%)
Give just the numeric value; % need not be written.

[Q] # query: inhibition of entry S=c1[nH]nc(-c2ccccc2)n1CCCCc1ccccc1
[A] 50

[Q] # query: inhibition of entry O=C(O)c1ccc(Cn2c(-c3ccccc3)n[nH]c2=S)cc1
[A] 45

[Q] # query: inhibition of entry COc1ccc(O)c(-c2n[nH]c(=S)n2Cc2ccccc2)c1
[A] 40

[Q] # query: inhibition of entry S=c1[nH]nc(Cc2ccccc2)n1Cc1ccccc1
[A] 40

[Q] # query: inhibition of entry S=c1[nH]nc(Cc2ccccc2)n1CCCc1ccccc1
[A] 32

---

Test system: Escherichia coli
Experiment notes: Synergistic antimicrobial activity against blaNDM-1-producing multidrug-resistant Escherichia coli SI-004M clinical isolate assessed as meropenem MIC at 32 ug/ml by CLSI based microdilution method (reference value: 64 ug/ml)
Assay type: functional
Stated conditions: dose 32 µg/ml
Listing of recorded MIC by entry.
Give just the numeric value; µg/mL need not be written.

Answered cases to consult:
S=c1[nH]nc(-c2ccccc2)n1CCc1ccccc1: 64
COc1ccc(O)c(-c2n[nH]c(=S)n2CCc2ccccc2)c1: 64

[Q] # query: MIC of entry Oc1ccc(CCn2c(-c3cccc(-c4ccccc4)c3)n[nH]c2=S)c(O)c1
[A] 32

[Q] # query: MIC of entry O=C(O)c1cccc(Cn2c(-c3ccccc3)n[nH]c2=S)c1
[A] 32

[Q] # query: MIC of entry S=c1[nH]nc(-c2ccccc2)n1CCCCc1ccccc1
[A] 64

---

Experiment notes: Binding affinity to IMP1 (unknown origin) expressed in Escherichia coli BL21(DE3) assessed as inhibition constant by measuring rate of substrate hydrolysis by UV-Vis spectrophotometric analysis
Stated conditions: read-out: Ki
Result type: Ki (µM)
Give just the numeric value; µM need not be written.

Answered cases to consult:
COc1ccc(O)c(-c2n[nH]c(=S)n2[C@@H]2C[C@H]2c2ccccc2)c1: 4.6
Oc1ccc(CCn2c(-c3ccccc3)n[nH]c2=S)c(O)c1: 27
O=C(O)c1ccccc1/C=N/n1c(-c2cccc(-c3ccccc3)c2)n[nH]c1=S: 17.7
S=c1[nH]nc(-c2cc(Cl)cc(Cl)c2)n1/N=C/c1ccc(OCc2ccccc2)cc1: 0.1
Oc1ccc(CCn2c(-c3cccc(-c4ccccc4)c3)n[nH]c2=S)cc1O: 9.2

[Q] # query: Ki of entry Oc1ccc(CCn2c(-c3ccc4ccccc4c3)n[nH]c2=S)cc1
[A] 24

[Q] # query: Ki of entry Oc1ccc(/C=N/n2c(-c3ccccc3-c3ccccc3)n[nH]c2=S)c(O)c1
[A] 12

[Q] # query: Ki of entry COc1ccc(O)c(-c2n[nH]c(=S)n2CCc2ccccc2)c1
[A] 20.2

[Q] # query: Ki of entry S=c1[nH]nc(-c2ccccc2)n1CCCc1ccccc1
[A] 14

[Q] # query: Ki of entry Oc1cccc(CCn2c(-c3cccc(-c4ccccc4)c3)n[nH]c2=S)c1O
[A] 20

[Q] # query: Ki of entry Oc1ccc(CCn2c(-c3ccccc3)n[nH]c2=S)cc1
[A] 42

[Q] # query: Ki of entry O=C1OC(Cn2c(-c3ccc4ccccc4c3)n[nH]c2=S)c2ccccc21 (centres undefined)
[A] 9.8

[Q] # query: Ki of entry Sc1nnc(-c2ccccc2)n1Cc1ccccc1
[A] 8

[Q] # query: Ki of entry S=c1[nH]nc(-c2ccccc2)n1CCc1ccc(OCc2ccccc2)cc1
[A] 5.3
